target: VLA4 (Homo sapiens, UniProt P05556+P13612); construct: endogenous in cells; test: Inhibition of VLA4-dependent adhesion to BSA-CS1 (labelled Ramos cells); conditions: binding of BCECF-AM labelled Ramos cells to CS1 peptide-coated wells, 2 mM MnCl2, 30 minutes at room temperature; IC50 range
Sequence (P13612 34-1032): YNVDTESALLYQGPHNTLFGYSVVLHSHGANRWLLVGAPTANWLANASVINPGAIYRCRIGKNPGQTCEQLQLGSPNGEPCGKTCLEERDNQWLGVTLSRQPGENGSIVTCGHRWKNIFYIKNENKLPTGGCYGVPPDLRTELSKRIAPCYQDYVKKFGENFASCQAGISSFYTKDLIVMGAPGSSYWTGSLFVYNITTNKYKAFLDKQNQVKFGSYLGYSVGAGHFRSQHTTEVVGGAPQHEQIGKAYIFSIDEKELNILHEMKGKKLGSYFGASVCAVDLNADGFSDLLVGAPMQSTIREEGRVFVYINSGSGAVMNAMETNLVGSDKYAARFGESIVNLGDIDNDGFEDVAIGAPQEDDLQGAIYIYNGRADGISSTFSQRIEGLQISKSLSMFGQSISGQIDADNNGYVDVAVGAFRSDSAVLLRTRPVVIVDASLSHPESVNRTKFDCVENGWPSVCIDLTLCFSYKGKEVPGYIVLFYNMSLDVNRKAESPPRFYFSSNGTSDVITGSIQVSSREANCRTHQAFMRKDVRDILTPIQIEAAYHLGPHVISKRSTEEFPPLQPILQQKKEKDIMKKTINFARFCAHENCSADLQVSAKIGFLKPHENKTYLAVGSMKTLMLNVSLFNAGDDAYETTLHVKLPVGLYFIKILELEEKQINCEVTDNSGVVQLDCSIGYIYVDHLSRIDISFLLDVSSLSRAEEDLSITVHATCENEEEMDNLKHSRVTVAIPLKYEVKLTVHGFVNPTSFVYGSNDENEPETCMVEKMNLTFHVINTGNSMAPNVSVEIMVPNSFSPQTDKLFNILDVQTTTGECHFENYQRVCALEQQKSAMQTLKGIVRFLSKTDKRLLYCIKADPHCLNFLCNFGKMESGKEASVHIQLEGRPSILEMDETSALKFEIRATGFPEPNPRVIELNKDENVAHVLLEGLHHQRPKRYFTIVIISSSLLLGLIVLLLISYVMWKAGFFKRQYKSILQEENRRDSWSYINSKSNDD
Sequence (P05556 21-798): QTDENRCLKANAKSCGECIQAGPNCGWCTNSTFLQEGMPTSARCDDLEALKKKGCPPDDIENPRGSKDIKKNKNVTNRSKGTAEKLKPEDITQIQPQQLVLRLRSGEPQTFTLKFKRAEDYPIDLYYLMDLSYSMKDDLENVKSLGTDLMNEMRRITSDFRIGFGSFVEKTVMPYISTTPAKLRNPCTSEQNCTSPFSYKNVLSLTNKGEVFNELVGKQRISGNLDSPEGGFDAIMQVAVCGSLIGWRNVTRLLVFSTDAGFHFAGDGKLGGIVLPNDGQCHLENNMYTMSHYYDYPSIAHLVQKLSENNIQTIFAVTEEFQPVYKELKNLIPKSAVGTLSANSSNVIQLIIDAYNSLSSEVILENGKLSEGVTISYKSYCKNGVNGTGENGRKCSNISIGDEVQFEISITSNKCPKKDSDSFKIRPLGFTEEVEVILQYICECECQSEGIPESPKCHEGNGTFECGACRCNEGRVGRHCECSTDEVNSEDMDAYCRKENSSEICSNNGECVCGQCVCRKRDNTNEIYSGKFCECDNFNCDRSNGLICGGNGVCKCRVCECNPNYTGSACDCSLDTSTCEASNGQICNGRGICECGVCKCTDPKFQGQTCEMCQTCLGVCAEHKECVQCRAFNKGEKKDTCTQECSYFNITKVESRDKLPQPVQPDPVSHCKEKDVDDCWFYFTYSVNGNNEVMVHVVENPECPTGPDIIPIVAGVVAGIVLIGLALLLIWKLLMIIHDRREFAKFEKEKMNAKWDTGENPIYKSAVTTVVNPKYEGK
Readings of IC50 for the listed compounds

{"compound": "COc1ccc(C(CC(=O)O)NC(=O)C(CC(C)C)NC(=O)Cc2ccc(O)cc2)cc1 (stereo not shown) [compound 1173]", "IC50": "0.05 to 10 µM"}
{"compound": "CC(C)CC(NC(=O)CCc1ccccc1)C(=O)NC(CC(=O)O)c1ccccc1 (stereo not shown) [compound 1150]", "IC50": "> 10 µM"}
{"compound": "CC(C)CC(NC(=O)Cc1ccc2ccccc2c1)C(=O)NC(CC(=O)O)c1ccccc1 (stereo not shown) [compound 1022]", "IC50": "> 10 µM"}
{"compound": "C#CCN(C)C(=O)CC(NC(=O)Cc1ccc(NC(=O)Nc2ccccc2)cc1)C(=O)NC(CC(=O)O)c1ccc2c(c1)OCO2 (stereo not shown) [compound 1177]", "IC50": "0.05 to 10 µM"}

* * *

biological target: VLA4 (Homo sapiens, UniProt P05556+P13612); construct: endogenous in cells; test: Inhibition of VLA4-dependent adhesion to BSA-CS1 (labelled Ramos cells); settings: binding of BCECF-AM labelled Ramos cells to CS1 peptide-coated wells, 2 mM MnCl2, 30 minutes at room temperature; IC50 range
Readings of IC50 for the listed compounds
property: IC50

{"compound": "CC(C)CC(NC(=O)Cc1ccc(NC(=O)Nc2ccccc2[N+](=O)[O-])cc1)C(=O)NC(CC(=O)O)c1ccc2c(c1)OCO2 (stereo not shown)", "measuredValue": "0.05 to 10 µM"}
{"compound": "CC(C)CC(NC(=O)Cc1ccc(NC(=O)Nc2ccncc2)cc1)C(=O)NC(CC(=O)O)c1ccc2c(c1)OCO2 (stereo not shown)", "measuredValue": "0.05 to 10 µM"}
{"compound": "COc1ccc(CC(=O)NC(CC(C)C)C(=O)NC(CC(=O)O)c2ccccc2)cc1 (stereo not shown)", "measuredValue": "> 10 µM"}
{"compound": "COc1ccc(C(CC(=O)O)NC(=O)C(CC(C)C)NC(=O)Cc2ccc(NC(=O)Nc3ccccc3C)cc2)cc1 (stereo not shown)", "measuredValue": "< 0.05 µM"}
{"compound": "COc1cccc(C(CC(=O)O)NC(=O)C(CC(C)C)NC(=O)Cc2ccc(NC(=O)Nc3ccccc3)cc2)c1 (stereo not shown)", "measuredValue": "< 0.05 µM"}
{"compound": "COc1ccccc1C(CC(=O)O)NC(=O)C(CC(C)C)NC(=O)Cc1ccc(O)cc1 (stereo not shown)", "measuredValue": "0.05 to 10 µM"}
{"compound": "Cc1ccccc1NC(=O)Nc1ccc(CC(=O)NC(CC(C)C)C(=O)NC(CC(=O)O)c2ccc(C(=O)O)cc2)cc1 (stereo not shown)", "measuredValue": "< 0.05 µM"}

* * *

biological target: VLA4 (Homo sapiens, UniProt P05556+P13612); construct: endogenous in cells; assay: Inhibition of VLA4-dependent adhesion to BSA-CS1 (labelled Ramos cells); conditions: binding of BCECF-AM labelled Ramos cells to CS1 peptide-coated wells, 2 mM MnCl2, 30 minutes at room temperature; IC50 range
property: IC50

{"molecule": "CC(C)CC(NC(=O)Cc1ccc(NC(=O)Nc2ccccc2)cc1)C(=O)NC(CC(=O)O)c1ccc2c(c1)CCC2 (centres unmarked) [compound 1128]", "measuredValue": "0.05 to 10 µM"}
{"molecule": "CC(C)CC(NC(=O)Cc1ccc(NC(=O)Nc2ccccc2C(C)(C)C)cc1)C(=O)NC(CC(=O)O)c1ccc2c(c1)OCO2 (centres unmarked) [compound 1209]", "measuredValue": "> 10 µM"}
{"molecule": "CC(C)CC(NC(=O)Nc1ccc(NC(=O)Nc2ccccc2)cc1)C(=O)NC(CC(=O)O)c1ccccc1 (centres unmarked) [compound 1110]", "measuredValue": "0.05 to 10 µM"}
{"molecule": "CC(C)CC(NC(=O)Cc1ccc(Cl)cc1)C(=O)NC(CC(=O)O)c1ccccc1 (centres unmarked) [compound 1010]", "measuredValue": "0.05 to 10 µM"}
{"molecule": "COc1ccc(C(CC(=O)O)NC(=O)C(CC(C)C)NC(=O)Cc2ccc(NC(=O)Nc3cccnc3C)cc2)cc1 (centres unmarked) [compound 1220]", "measuredValue": "0.05 to 10 µM"}
{"molecule": "CC(C)CC(NC(=O)OCc1ccccc1)C(=O)NC(CC(=O)O)c1cccnc1 (centres unmarked) [compound 1153]", "measuredValue": "> 10 µM"}
{"molecule": "COc1ccc(C(CC(=O)O)NC(=O)C(CC[S+](C)[O-])NC(=O)Cc2ccc(NC(=O)Nc3ccccc3)cc2)cc1 (centres unmarked) [compound 1199]", "measuredValue": "0.05 to 10 µM"}
{"molecule": "CC(C)CC(NC(=O)Cc1ccc(C(F)(F)F)cc1)C(=O)NC(CC(=O)O)c1ccccc1 (centres unmarked) [compound 1011]", "measuredValue": "> 10 µM"}

* * *

biological target: VLA4 (Homo sapiens, UniProt P05556+P13612); construct: endogenous in cells; experiment: Inhibition of VLA4-dependent adhesion to BSA-CS1 (labelled Ramos cells); conditions: binding of BCECF-AM labelled Ramos cells to CS1 peptide-coated wells, 2 mM MnCl2, 30 minutes at room temperature; IC50 range
pIC50: −log10 of the molar value.

{"compound": "COc1ccc(C(CC(=O)O)NC(=O)C(CC(C)C)N(C)C(=O)Cc2ccc(NC(=O)Nc3ccccc3)cc2)cc1 (stereo not shown)", "pIC50": "5.00 to 7.30"}
{"compound": "CSCCC(NC(=O)Cc1ccc(NC(=O)Nc2ccccc2)cc1)C(=O)NC(CC(=O)O)c1ccc2c(c1)OCO2 (stereo not shown)", "pIC50": "5.00 to 7.30"}
{"compound": "CSCCC(NC(=O)Cc1ccccc1)C(=O)NC(CC(=O)O)c1ccc2c(c1)OCO2 (stereo not shown)", "pIC50": "5.00 to 7.30"}
{"compound": "CSCCC(NC(=O)Cc1ccc(NC(=O)Nc2ccccc2)cc1)C(=O)NC(CC(=O)O)c1ccccc1 (stereo not shown)", "pIC50": "> 7.30"}
{"compound": "COc1ccc(C(CC(=O)O)NC(=O)C(CC(C)C)NC(=O)Cc2ccc(NC(=O)Nc3ccccc3)cc2)cc1 (stereo not shown)", "pIC50": "> 7.30"}
{"compound": "O=C(O)CC(NC(=O)C(COCc1ccccc1)NC(=O)Cc1ccccc1)c1ccccc1 (stereo not shown)", "pIC50": "< 5.00"}
{"compound": "COc1ccc(C(CC(=O)O)NC(=O)C(CC(C)C)NC(=O)Cc2ccc(NC(=O)Nc3cccnc3)cc2)cc1OC (stereo not shown)", "pIC50": "5.00 to 7.30"}
